Molecular target: PGPH activity of purified bovine erythrocyte 20S proteasome (Bos taurus, UniProt Q3MHN0)
Construct: from tissue; host or cells: bovine erythrocytes (red blood cells)
Assay: Enzyme kinetic assay, PGPH activity (Z-LLE-AMC)
Type: biochemical
Settings: Examples 9 and 10
Method: We investigated the potency of inhibitors of various length. […] Purified bovine erythrocyte proteasome was enzymatically assayed using a variety of different substrates and inhibitors. In order to evaluate the rates of proteolytic inactivation by inhibitors, kassociation (kobs/[I]) values were determined using fluorogenic peptide substrates over a range of inhibitor concentrations.
Param threshold (80) applies to kobs/[I] for PGPH activity using Z-LLE-AMC; output TRUE when value >= threshold, FALSE when value < threshold.

Exercise: API: above_or_equal(metric=kobs/[I] for PGPH activity using Z-LLE-AMC, cutoff=80) for item CC(=O)N[C@@H](CC(C)C)C(=O)N[C@@H](CC(C)C)C(=O)N[C@@H](C)C(=O)N[C@@H](CC(C)C)C(=O)[C@@]1(C)CO1 [Ac-LLAL-epoxide]
Key: FALSE

Exercise: API: above_or_equal(metric=kobs/[I] for PGPH activity using Z-LLE-AMC, cutoff=80) for item "CC(=O)N[C@@H](CCc1ccccc1)C(=O)N[C@@H](CC(C)C)C(=O)N[C@@H](CC(C)C)C(=O)N[C@@H](CC(C)C)C(=O)[C@@]1(C)CO1"
Key: FALSE

Exercise: API: above_or_equal(metric=kobs/[I] for PGPH activity using Z-LLE-AMC, cutoff=80) for item CC(=O)N[C@@H](CC(C)C)C(=O)N[C@@H](C)C(=O)N[C@@H](CC(C)C)C(=O)N[C@@H](CC(C)C)C(=O)[C@@]1(C)CO1 [Ac-LALL-epoxide]
Key: TRUE

Exercise: API: above_or_equal(metric=kobs/[I] for PGPH activity using Z-LLE-AMC, cutoff=80) for item CC(=O)N[C@@H](C)C(=O)N[C@@H](CC(C)C)C(=O)N[C@@H](CC(C)C)C(=O)N[C@@H](CC(C)C)C(=O)[C@@]1(C)CO1 [Ac-ALLL-epoxide]
Key: TRUE

The measurements presented in this section are drawn from patent US7476650B2.
